# credit: ChEMBL document CHEMBL5030547

Test system: PC-3
experiment_summary: Cytotoxicity against human PC-3 cells assessed as reduction in cell viability after 48 hrs
Type: functional, cell-based
test_parameters: PC-3, 48 h
In this section, each of the compounds is paired with its reported IC50.
result_type: IC50 (µM)

1. COc1ccc(-c2cc(COC(Cc3cn(C4CCN(Cc5ccc([N+](=O)[O-])cc5)CC4)nn3)c3ccc(Br)cc3)on2)cc1 (stereo unspecified) = 3
2. O=[N+]([O-])c1ccc(CN2CCC(n3cc(CC(OCc4cc(-c5ccccc5F)no4)c4ccc(Br)cc4)nn3)CC2)cc1 (stereo unspecified) = 6
3. O=[N+]([O-])c1ccc(CN2CCC(n3cc(CC(OCc4cc(-c5cccc(F)c5)no4)c4ccc(Br)cc4)nn3)CC2)cc1 (stereo unspecified) = 9
